Values from ChEMBL document CHEMBL3988442

# assay.name: In vitro enzyme assay to detect hydrolysis of chlorophenol red-beta-D-[…] directly proportional to the number of Toxoplasma stably expressing beta-galactosidase
# Assay type: functional, organism-based, Toxoplasma gondii
# Parameters: scale not given: in the data most compounds retested in dose-response had high values
# applied.conditions: 50 µM
The campaign covered roughly 85,000 compounds. About 440 (0.52%) showed an effect of 50% or more. Shown is part of a subset that was picked to be rich in strong results.
readout.type: Percent Effect

compound | Percent Effect
CC(C)c1ccn(C)n1 | 1.261%

input: If you can, please state the reported Percent Effect value of "COC(=O)c1cn(CC(=O)Nc2cccc(F)c2)nn1" .
output: -28.09%

input: Entry "Cc1cc(CNc2ncnc3c2cnn3C)on1" has what Percent Effect?
output: -29.33%

input: # get_value(readout='Percent Effect', item= COCc1ccccc1C(=O)N1CCCC(O)C1 (centres undefined) )
output: 58.79%

input: # query: Percent Effect of entry "COc1cc(Cl)ccc1CN"
output: 12.35%

input: Item under review: "CCOc1c(OC)cc(CN)cc1OC" . Reported Percent Effect?
output: -2.331%

input: Bench note: what Percent Effect did "O=C(c1ccc(F)cc1)C(O)O" show?
output: 0.6979%

input: Find the recorded Percent Effect belonging to CC(O)C(=O)Nc1ccc(Cl)c(OC(F)F)c1 (centres undefined) and report it.
output: -7.05%

input: Any idea what its Percent Effect is? The compound is "CCS(=O)(=O)N(C)CC(=O)Nc1cc(C)on1"
output: -10.63%

input: Percent Effect lookup needed for "CC(=O)c1c[nH]c(C(=O)NCc2cccnc2)c1" , thanks.
output: 0.2894%

input: # Percent Effect lookup, item "COc1cccc2c1N(CC(=O)N1CCC1)CCC2"
output: -0.7135%

input: Entry "Cc1cc(F)cc(S(=O)(=O)NCCN)c1" has what Percent Effect?
output: -4.306%

input: Record request: Percent Effect value, item CCC(C)NCCOC (centres undefined)
output: -11.32%

input: Percent Effect for "O=S(=O)(CCN1CCC(CO)CC1)c1ccccc1" ?
output: -26.81%

input: May I ask what Percent Effect has been recorded for O=C(NC1CCCSC1)N(CCO)C1CC1 (centres undefined) ?
output: 98.6%

input: Sample "COCC(=O)N1CCN(CCC(C)C)CC1" — what was its Percent Effect?
output: 7.319%

input: Param item = "O=C(NCc1cn2ccccc2n1)c1ccc(=O)oc1" ; retrieve measured Percent Effect.
output: -17.09%

input: Would you mind telling me what Percent Effect value was observed for CC(C)OCc1nc(C(C)N)no1 (centres undefined) ?
output: -1.581%

input: Find the recorded Percent Effect belonging to "Cc1cc(C(=O)Nc2ccc(OCC(N)=O)cc2)on1" and report it.
output: 12.73%

input: Any idea what its Percent Effect is? The compound is "CCN1CCCN(C(=O)c2ccccc2COC)CC1"
output: 3.121%
